system: MCF7; assay: Antiproliferative activity against human MCF7 cells after 72 hrs; assay type: functional, cell-based; conditions: MCF7, 72 h
Recorded log10(IC50) by entry
Measurement Kind: log10(IC50) (log10 of the value in µM)

{"Test Smiles": "COC(=O)c1cc(O)c2[nH]c3ncccc3c2c1", "Assayed Target": "MCF7", "Result Value": 1.04}
{"Test Smiles": "COC(=O)c1cc(O)c2[nH]c3ccccc3c2c1", "Assayed Target": "MCF7", "Result Value": -0.22}
{"Test Smiles": "COC(=O)c1cc(OC)c2[nH]c3ncccc3c2c1", "Assayed Target": "MCF7", "Result Value": 0.64}
{"Test Smiles": "COc1cc(CO)cc2c1[nH]c1ncccc12", "Assayed Target": "MCF7", "Result Value": 1.76}
{"Test Smiles": "COC(=O)c1cc(OC)c2[nH]c3ccccc3c2c1", "Assayed Target": "MCF7", "Result Value": 1.48}
{"Test Smiles": "O=c1[nH]cc(F)c(=O)[nH]1", "Assayed Target": "MCF7", "Result Value": -0.52}
